- System: L1210 leukemia ip in BDF1 mice, survival T/C
- EXPERIMENT_NOTES: NCI In Vivo Anticancer Drug Screen. Data for tumor model L1210 Leukemia (intraperitoneal) in B6D2F1 (BDF1) mice
- REPORTED_CONDITIONS: endpoint: mean survival time; dose: 200.0 mg/kg/injection; schedule: Q04DX003 (ip); vehicle: saline with Tween-80; higher = longer survival
Inconclusive results and toxic doses are left out.
METRIC_NAME: T/C

QUERY: Could you share what T/C was measured for O=[N+]([O-])CC(OCCCc1ccccc1)C(Cl)(Cl)Cl (stereo not drawn) , tested on L1210 leukemia ip in BDF1 mice, survival T/C?
RESULT: 104 % of control

QUERY: Could you do the same for `CCOC(=O)c1cnc(SC)nc1Nc1c(Cl)cccc1Cl` , please?
RESULT: 94 % of control

QUERY: One more molecule: `O=C(O)c1ccc(Nc2ncnc3nc[nH]c23)cc1`
RESULT: 96 % of control

QUERY: Would you kindly repeat that for `COC(OC)c1[nH]c(=S)[nH]c(=O)c1Cc1ccc(-c2ccccc2)cc1` ?
RESULT: 100 % of control

QUERY: Same question, CCCC(O)C1CCCCC1O (stereo not drawn) this time
RESULT: 100 % of control

QUERY: Again, but for `CNC(=O)Oc1cccc(NC(=O)OC(C)(C)C)c1`
RESULT: 94 % of control

QUERY: Next up: `COC(=O)c1[nH]nc(-c2ccccc2)c1N`
RESULT: 93 % of control

QUERY: Lookup `C=C(C)CC1(CC)C(=O)NC(=S)NC1=O`
RESULT: 98 % of control

QUERY: Let us now turn to `CCC(=O)Nc1cc(C(F)(F)F)ccc1Cl`
RESULT: 98 % of control

QUERY: Do the same for `COc1cc2c(cc1[N+](=O)[O-])OCO2` please
RESULT: 97 % of control

QUERY: // repeat for NC(C(=O)O)c1ccccc1C(=O)O (stereo not drawn) and report
RESULT: 103 % of control

QUERY: Also, `COc1cc(C)c(OC)c(CCl)c1C` please.
RESULT: 98 % of control

QUERY: Likewise for `COc1ccc(COc2ccc(Cl)cc2)cc1OC` ?
RESULT: 98 % of control

###

Exercise: for every item that follows, state its recorded T/C.
- System: L1210 leukemia ip in BDF1 mice, survival T/C
- EXPERIMENT_NOTES: NCI In Vivo Anticancer Drug Screen. Data for tumor model L1210 Leukemia (intraperitoneal) in B6D2F1 (BDF1) mice
- REPORTED_CONDITIONS: endpoint: mean survival time; dose: 400.0 mg/kg/injection; schedule: Q04DX003 (ip); vehicle: other; higher = longer survival
Toxic doses and inconclusive results are not listed. Square brackets hold non-standard residues; d marks the D form. Peptide text beside a SMILES is read from it. * marks the point of attachment. ξ: configuration not given here. ξF = NC(Cc1ccccc1)C(=O)O; Cbz = O=C(OCc1ccccc1)*

QUERY: Quick one: T/C of `CN(C=O)COCN(C)C=O` ?
RESULT: 104 % of control

QUERY: What do you have for O=COC(CCCc1ccccc1)c1ccc2c(c1)OCO2 (stereo unspecified) ?
RESULT: 98 % of control

QUERY: Also `Cc1cccc2cc3ccc4ccccc4c3cc12` , if possible.
RESULT: 95 % of control

QUERY: Follow-up entry: `O=C(CC(O)(C(F)(F)F)C(F)(F)F)c1ccc(Br)cc1`
RESULT: 93 % of control

QUERY: Now the same for `NC(=S)NO`
RESULT: 96 % of control

QUERY: What do you get for COC(=O)C(Cc1ccccc1)NC(=O)CNC(=O)CNC(=O)OCc1ccccc1 (stereo not drawn) (Cbz-Gly-Gly-[ξF]-OMe) ?
RESULT: 106 % of control
